# assay_info: Metabolic stability in mouse liver microsomes (in vitro t1/2)
# Type: in vitro ADME
# test_parameters: mouse liver microsomes 0.5 mg/mL, 2 μM compound; read-out: Mouse microsome t1/2, min
value_type: log10(half-life at 2 µM) (log10 of the value in h)
Values are log10 of half-life at 2 µM in h.

Fill in log10(half-life at 2 µM) for record CC(C)(OCc1cc(-c2cccc(OC3CC3)c2)n(Cc2ccccc2Cl)n1)C(=O)O [Example 39] 0.79

Fill in log10(half-life at 2 µM) for record Cn1ncc2cccc(-n3nc(COC(C)(C)C(=O)O)cc3-c3cccc(OC4CC4)c3)c21 [Example 191] 1.23

Fill in log10(half-life at 2 µM) for record CC(C)Oc1ncc(-c2cc(COC(C)(C)C(=O)O)nn2Cc2ccccc2Cl)s1 [Example 133] 0.76

Fill in log10(half-life at 2 µM) for record Cn1ncc2cccc(-n3nc(COC(C)(C)C(=O)O)cc3-c3cccc(OCC(C)(C)C)c3)c21 [Example 167] 0.86

Fill in log10(half-life at 2 µM) for record CC[C@](C)(OCc1cc(-c2cccc(OC)c2)n(Cc2ccccc2Cl)n1)C(=O)O [Example 120] 0.83

Fill in log10(half-life at 2 µM) for record Cn1ncc2cccc(-n3nc(COC(C)(C)C(=O)O)cc3-c3cccc(OC4CCC4)c3)c21 [Example 166] 0.51

Fill in log10(half-life at 2 µM) for record COc1cc(OC)cc(-c2cc(COC(C)(C)C(=O)O)nn2Cc2ccccc2Cl)c1 [Example 224] 1.14

Fill in log10(half-life at 2 µM) for record CC(C)(OCc1cc(-c2cccc(OCC3CCC3)c2)n(-c2ccccc2Cl)n1)C(=O)O [Example 178] 0.32

Fill in log10(half-life at 2 µM) for record CCOc1ccccc1Cn1nc(COC(C)(C)C(=O)O)cc1-c1ccc2cnn(CC)c2c1 [Example 198] 0.61

Fill in log10(half-life at 2 µM) for record CCC(C)(OCc1cc(-c2cccc(OC)c2)n(Cc2ccccc2Cl)n1)C(=O)O (stereo not shown) [Example 68] 0.80

Fill in log10(half-life at 2 µM) for record CCn1ncc2ccc(-c3cc(CO[C@](C)(CC)C(=O)O)nn3Cc3ccccc3Cl)cc21 [Example 220] 1.24

Fill in log10(half-life at 2 µM) for record Cn1ncc2ccc(-c3cc(COC(C)(C)C(=O)O)nn3Cc3ccccc3Cl)cc21 [Example 226] 1.06

Fill in log10(half-life at 2 µM) for record CC(C)COc1cccc(-c2cc(COC(C)(C)C(=O)O)nn2Cc2ccccc2Cl)c1 [Example 27] 0.01

Fill in log10(half-life at 2 µM) for record COc1cc(-c2cc(COC(C)(C)C(=O)O)nn2Cc2ccccc2Cl)cs1 [Example 66] 0.64

Fill in log10(half-life at 2 µM) for record CCn1ncc2ccc(-c3cc(COC(C)(C)C(=O)O)nn3-c3ccccc3N3CCC3)cc21 [Example 228] 1.11

Fill in log10(half-life at 2 µM) for record Cc1ccccc1-n1nc(COC(C)(C)C(=O)O)cc1-c1cccc(OC2CC2)c1 [Example 188] 1.37

Fill in log10(half-life at 2 µM) for record CC(C)Oc1cccc(-c2cc(COC(C)(C)C(=O)O)nn2Cc2ccccc2Cl)c1 [Example 35] -0.23

Fill in log10(half-life at 2 µM) for record CC(C)COc1ncc(-c2cc(COC(C)(C)C(=O)O)nn2Cc2ccccc2Cl)s1 [Example 132] 0.21

Fill in log10(half-life at 2 µM) for record CC(C)(OCc1cc(-c2cccc(OC3CC3)c2)n(-c2ccccc2Cl)n1)C(=O)O [Example 110] 0.57

Fill in log10(half-life at 2 µM) for record COc1cccc(-c2cc(COC(C)(C)C(=O)O)nn2Cc2ccccc2OC(C)C)c1 [Example 140] 0.03

Fill in log10(half-life at 2 µM) for record CC(C)(C)COc1cccc(-c2cc(COC(C)(C)C(=O)O)nn2-c2ccccc2N2CCC2)c1 [Example 155] -0.20

Fill in log10(half-life at 2 µM) for record COc1cc(OC)cc(-c2cc(COC(C)(C)C(=O)O)nn2-c2ccccc2N2CCC2)c1 [Example 251] 0.19

====

Kindly supply the reported log10 of IC50 values for the records listed here.
# subject_of_test: MCT4 (Homo sapiens (Human))
# Sequence (O15427 whole entry, looked up): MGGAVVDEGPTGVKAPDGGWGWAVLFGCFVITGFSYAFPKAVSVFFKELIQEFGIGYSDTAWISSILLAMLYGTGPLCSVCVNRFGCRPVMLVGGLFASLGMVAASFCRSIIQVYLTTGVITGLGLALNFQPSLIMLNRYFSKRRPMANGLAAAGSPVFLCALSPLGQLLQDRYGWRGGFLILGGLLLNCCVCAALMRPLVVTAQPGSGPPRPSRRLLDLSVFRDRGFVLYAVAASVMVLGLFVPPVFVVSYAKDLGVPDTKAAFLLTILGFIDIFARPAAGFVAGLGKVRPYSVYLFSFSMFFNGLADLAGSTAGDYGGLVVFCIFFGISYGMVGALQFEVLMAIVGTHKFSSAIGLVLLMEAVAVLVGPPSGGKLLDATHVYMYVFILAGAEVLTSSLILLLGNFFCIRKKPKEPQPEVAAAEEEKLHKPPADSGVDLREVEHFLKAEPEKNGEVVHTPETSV
# Sequence (P35613 whole entry partner, looked up): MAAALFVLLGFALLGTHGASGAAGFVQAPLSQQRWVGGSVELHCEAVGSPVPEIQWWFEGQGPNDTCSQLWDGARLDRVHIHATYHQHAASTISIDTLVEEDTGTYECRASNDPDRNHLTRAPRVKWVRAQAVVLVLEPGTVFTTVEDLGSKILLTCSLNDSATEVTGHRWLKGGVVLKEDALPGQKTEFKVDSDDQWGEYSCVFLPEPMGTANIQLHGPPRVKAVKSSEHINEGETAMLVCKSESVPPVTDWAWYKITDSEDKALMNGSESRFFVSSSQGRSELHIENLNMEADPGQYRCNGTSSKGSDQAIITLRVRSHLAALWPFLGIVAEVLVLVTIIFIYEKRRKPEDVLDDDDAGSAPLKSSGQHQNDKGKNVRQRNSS
# assay_info: Assay 3: MCT4-mediated lactate transport in MDA-MB-231 breast cancer cells
# Type: cell-based
# test_parameters: MDA-MB-231 cells; lactate transport
Values are log10 of IC50 in nM.

Fill: log10 of IC50 (MCT4 (Homo sapiens (Human))) for this molecule "CCOc1cc(OCC)cc(-c2cc(COC(C)(C)C(=O)O)nn2Cc2ccccc2OCC)c1" 0.88

Fill: log10 of IC50 (MCT4 (Homo sapiens (Human))) for this molecule "CC[C@H](OCc1cc(-c2cccc(OC)c2)n(Cc2ccccc2Cl)n1)C(=O)O" 1.70

Fill: log10 of IC50 (MCT4 (Homo sapiens (Human))) for this molecule "CC(C)Oc1ncc(-c2cc(COC(C)(C)C(=O)O)nn2Cc2ccccc2Cl)s1" 1.11

Fill: log10 of IC50 (MCT4 (Homo sapiens (Human))) for this molecule "CC(C)(OCc1cc(-c2cccc(OC3CC3)c2)n(-c2ccccc2N2CCOCC2)n1)C(=O)O" 2.98

Fill: log10 of IC50 (MCT4 (Homo sapiens (Human))) for this molecule "CC(C)(OCc1cc(-c2cccc(OC3CCC3)c2)n(Cc2ccccc2N2CCCC2)n1)C(=O)O" 0.57

Fill: log10 of IC50 (MCT4 (Homo sapiens (Human))) for this molecule "CC[C@@](C)(OCc1cc(-c2cc(OC)cc(OC)c2)n(-c2ccccc2Cl)n1)C(=O)O" 0.59

Fill: log10 of IC50 (MCT4 (Homo sapiens (Human))) for this molecule "CC(C)(OCc1cc(-c2cccc(OC3CC3)c2)n(-c2cc(Cl)ccc2Cl)n1)C(=O)O" 0.97

Fill: log10 of IC50 (MCT4 (Homo sapiens (Human))) for this molecule "CC(C)(OCc1cc(-c2cccc(OC3COC3)c2)n(-c2ccccc2Cl)n1)C(=O)O" 2.26

Fill: log10 of IC50 (MCT4 (Homo sapiens (Human))) for this molecule "CCOc1ccccc1Cn1nc(COC(C)(C)C(=O)O)cc1-c1ccc2cnn(C)c2c1" 1.18

Fill: log10 of IC50 (MCT4 (Homo sapiens (Human))) for this molecule "Cc1nn(C)c2sc(-c3cc(COC(C)(C)C(=O)O)nn3Cc3ccccc3Cl)cc12" 0.75

Fill: log10 of IC50 (MCT4 (Homo sapiens (Human))) for this molecule "Cc1ccccc1-n1nc(COC(C)(C)C(=O)O)cc1-c1cccc(OCC(C)C)c1" 0.88

Fill: log10 of IC50 (MCT4 (Homo sapiens (Human))) for this molecule "COc1cc(OC)cc(-c2cc(COC(C)(C)C(=O)O)nn2-c2ccccc2N(C)C)c1" 0.88

Fill: log10 of IC50 (MCT4 (Homo sapiens (Human))) for this molecule "CCOc1ccccc1Cn1nc(COC(C)(C)C(=O)O)cc1-c1cccc(OC2CC2)c1" 0.86

Fill: log10 of IC50 (MCT4 (Homo sapiens (Human))) for this molecule CCn1ncc2ccc(-c3cc(COC(C)(C)C(=O)O)nn3Cc3ccccc3Cl)cc21 [Example 150] 0.45

Fill: log10 of IC50 (MCT4 (Homo sapiens (Human))) for this molecule "CCOc1ccccc1Cn1nc(COC(C)(C)C(=O)O)cc1-c1cc(Cl)cc(OC)c1" 0.28

Fill: log10 of IC50 (MCT4 (Homo sapiens (Human))) for this molecule "CCn1ncc2ccc(-c3cc(CO[C@](C)(CC)C(=O)O)nn3-c3ccccc3N3CCCC3)cc21" -0.52

Fill: log10 of IC50 (MCT4 (Homo sapiens (Human))) for this molecule "COc1cccc(OC)c1Cn1nc(COC(C)(C)C(=O)O)cc1-c1cccc(OCC(C)C)c1" 1.72

Fill: log10 of IC50 (MCT4 (Homo sapiens (Human))) for this molecule "Cn1ncc2cccc(-n3nc(COC(C)(C)C(=O)O)cc3-c3cccc(OC4CCC4)c3)c21" 0.77

Fill: log10 of IC50 (MCT4 (Homo sapiens (Human))) for this molecule "COc1cccc(-c2cc(COC(C)(C)C(=O)O)nn2Cc2ccccc2OC(C)C)c1" 0.92

Fill: log10 of IC50 (MCT4 (Homo sapiens (Human))) for this molecule "CCOc1cc(OCC)cc(-c2cc(COC(C)(C)C(=O)O)nn2-c2ccccc2C)c1" 0.81

Fill: log10 of IC50 (MCT4 (Homo sapiens (Human))) for this molecule "COc1cccc(-c2cc(CO[C@H](C)C(=O)O)nn2Cc2ccccc2Cl)c1" 3.77

Fill: log10 of IC50 (MCT4 (Homo sapiens (Human))) for this molecule "COc1cccc(-c2cc(COC(C)(C)C(=O)O)nn2Cc2ccccc2OC2CC2)c1" 0.80

Fill: log10 of IC50 (MCT4 (Homo sapiens (Human))) for this molecule "CC[C@@](C)(OCc1cc(-c2cccc(OCC(C)C)c2)n(-c2cccc3cnn(C)c23)n1)C(=O)O" 0.34

Fill: log10 of IC50 (MCT4 (Homo sapiens (Human))) for this molecule "COc1ccccc1-c1cc(COC(C)(C)C(=O)O)nn1Cc1ccccc1Cl" 2.11

Fill: log10 of IC50 (MCT4 (Homo sapiens (Human))) for this molecule "CCn1ncc2ccc(-c3cc(CO[C@@](C)(CC)C(=O)O)nn3Cc3ccccc3Cl)cc21" -0.46

Fill: log10 of IC50 (MCT4 (Homo sapiens (Human))) for this molecule "CC(C)c1ccccc1-n1nc(COC(C)(C)C(=O)O)cc1-c1cccc(OC2CC2)c1" 1.26

Fill: log10 of IC50 (MCT4 (Homo sapiens (Human))) for this molecule "CC(C)(OCc1cc(-c2cccc(OC3CC3)c2)n(Cc2ccccc2N2CCCC2)n1)C(=O)O" 0.79

Fill: log10 of IC50 (MCT4 (Homo sapiens (Human))) for this molecule "COc1cc(OC)cc(-c2cc(COC(C)(C)C(=O)O)nn2-c2ccccc2Cl)c1" 1.11

Fill: log10 of IC50 (MCT4 (Homo sapiens (Human))) for this molecule "CC(C)COc1cccc(-c2cc(COC(C)(C)C(=O)O)nn2-c2ccccc2F)c1" 1.08

Fill: log10 of IC50 (MCT4 (Homo sapiens (Human))) for this molecule "CC(C)COc1cccc(-c2cc(COC(C)(C)C(=O)O)nn2Cc2ccccc2N(C)C)c1" 0.32

Fill: log10 of IC50 (MCT4 (Homo sapiens (Human))) for this molecule "COc1cccc(-c2cc(/C=C/C(C)(C)C(=O)O)nn2Cc2ccccc2Cl)c1" 2.29

Fill: log10 of IC50 (MCT4 (Homo sapiens (Human))) for this molecule "COc1cccc(-c2cc(COC(C)(C)C(=O)O)nn2Cc2ncccc2Cl)c1" 3.99
